Measured protein stability index by item
B1: BTBD1 (parent)
chain: TSAEIELPDVEPAAFLALLRFLYS

Variants of: B1
protocol: protein stability index of a GFP-peptide fusion (GPS, HEK-293T) (PSI 1-6); higher = more stable;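 note: lentivirally expressed fusions sorted by FACS into six bins by GFP to DsRed ratio, PSI derived from sequencing read proportions per bin multiplied by bin number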
experimentalConditions: c terminus: a fixed tail appended

# alteration, protein stability index
data = [
    ("S24N", 1.78),
    ("E11L", 1.88),
    ("L19N", 1.77),
    ("E11K", 2.75),
    ("F21S", 1.97),
    ("E4D", 1.66),
    ("F15P", 2.6),
    ("S24E", 1.69),
    ("S2E", 1.65),
    ("A17E", 2.12),
    ("A3C", 1.98),
    ("I5H", 1.93),
    ("R20M", 2.54),
    ("A14N", 1.92),
    ("L18G", 1.86),
    ("R20Q", 2.05),
    ("P8E", 2.17),
    ("A13D", 2.02),
    ("S2A", 1.72),
    ("A13F", 1.55),
    ("L18V", 1.37),
    ("V10W", 1.62),
    ("P12F", 1.84),
    ("Y23G", 1.58),
    ("E11H", 1.91),
    ("Y23C", 1.79),
    ("L16T", 1.87),
    ("I5R", 2.55),
    ("A3E", 1.91),
    ("E4W", 1.88),
    ("F15E", 2.31),
    ("E4A", 1.84),
    ("S2P", 2.33),
    ("A14M", 1.47),
    ("E4S", 1.45),
    ("L7R", 2.28),
    ("S24H", 1.72),
    ("S2M", 1.7),
    ("A13V", 2.02),
    ("E6D", 2.07),
    ("S2T", 1.74),
    ("L22W", 1.56),
    ("E6Q", 2.01),
    ("A17S", 1.93),
    ("I5A", 2.06),
    ("T1N", 2.17),
]
